Tested target: DDR2 (Homo sapiens, UniProt Q16832)
Construct: purchased Eurofins Pharma Discovery Services (KinaseProfiler; Cerep BioPrint panel)
Sequence (Q16832 22-855): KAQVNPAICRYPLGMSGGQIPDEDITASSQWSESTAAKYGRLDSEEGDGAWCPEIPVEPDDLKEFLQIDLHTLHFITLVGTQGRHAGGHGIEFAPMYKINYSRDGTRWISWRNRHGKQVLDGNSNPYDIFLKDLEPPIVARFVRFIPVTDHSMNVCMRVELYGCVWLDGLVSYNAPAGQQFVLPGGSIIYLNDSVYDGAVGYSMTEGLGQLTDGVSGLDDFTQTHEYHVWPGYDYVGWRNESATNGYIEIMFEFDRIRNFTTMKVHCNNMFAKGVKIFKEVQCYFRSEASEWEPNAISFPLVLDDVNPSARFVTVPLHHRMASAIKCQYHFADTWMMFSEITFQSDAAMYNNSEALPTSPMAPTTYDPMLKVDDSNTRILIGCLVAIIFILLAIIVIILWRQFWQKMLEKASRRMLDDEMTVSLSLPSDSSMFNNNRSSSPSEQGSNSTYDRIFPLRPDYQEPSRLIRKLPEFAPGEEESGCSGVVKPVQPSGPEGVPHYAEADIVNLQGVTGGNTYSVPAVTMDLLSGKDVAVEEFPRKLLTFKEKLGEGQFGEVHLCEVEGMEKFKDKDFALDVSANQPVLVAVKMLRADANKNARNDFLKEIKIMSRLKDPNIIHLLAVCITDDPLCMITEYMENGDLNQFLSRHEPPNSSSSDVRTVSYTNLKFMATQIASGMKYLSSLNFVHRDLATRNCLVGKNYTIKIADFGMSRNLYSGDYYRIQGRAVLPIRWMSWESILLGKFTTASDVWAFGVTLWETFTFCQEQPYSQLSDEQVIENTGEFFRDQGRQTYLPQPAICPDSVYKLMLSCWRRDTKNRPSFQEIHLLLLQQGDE
Procedure summary: kinase selectivity panel
Assay type: biochemical
Condition description: read-out: percentage of control activity (POC), DDR2
Method: Kinase selectivity was evaluated at Eurofins Pharma Discovery Services using a selection of 125 representative kinases tested at a concentration of 10 μM in duplicate (S3 Table). IC50 values for selected activities were further characterized at 9 duplicate concentrations. DNA-PK activity was determined at the SelectScreen® Biochemical kinase Profiling Service of Thermo Fisher Scientific.
List of remaining activity at 10 µM values.
Please state the figure in %; there is no need to write the unit.

The cases that follow already have their remaining activity at 10 µM on record.
In [3]: df
Out[3]:
                                   compound                        tested_target  measured_result
0  Cc1ccc(C(=O)NCC2CC2)cc1-c1ccc2c(c1)NC(=O)C21CCCC1  DDR2 (Homo sapiens, UniProt Q16832)               71
1  Cn1cc(-c2cccc(-c3nc(C(=O)NC4C5CC6CC4CC(O)(C6)C5)c(N)nc3N)c2)cn1 (centres unmarked)  DDR2 (Homo sapiens, UniProt Q16832)               47
2  CS(=O)(=O)N1CCN(c2ccc(Nc3ncc(C(N)=O)c(NC4CC4)n3)cc2)CC1  DDR2 (Homo sapiens, UniProt Q16832)               28
3  COc1c(NC(=O)c2ccc(C)c(-c3nnc4c(NCC(C)(C)C)nccn34)c2)cc(C(C)(C)C)cc1NS(C)(=O)=O [compound 7, reference compound]  DDR2 (Homo sapiens, UniProt Q16832)                3

Turning now to a further compound:
What value of measured remaining activity at 10 µM is listed for CC(C)(C)N1CCC(c2cc(-c3ccc(F)cc3Cl)c3cc[n+]([O-])c(-c4c(Cl)cccc4Cl)c3n2)CC1 ?
94

// data source = paper PMC5761851
